- Study System: T1, gH/gL/UL128/UL130/UL131A pentamer complex expressed from MVA-PC in BHK-21 cells (human cytomegalovirus, UniProt P12824 24-743; P16832 31-278; P16837 28-171; P16772 1-214; F5HET4 19-129)
- T1 construct: whole, on cells
- Assay Comment: FC competition, MVA-PC BHK-21; unlabelled row Ab; competitor: biotinylated 18F10
The following binders are listed with their measured Binding Inhibition (%) values.
Return type: number; implicit unit %.

Binder	Measurement Unit	Binding Inhibition (%)
2-80 (antibody, V domains shown, also called NAb 2-80) VH: QIQLVQSGPELKKPGETVKISCKASGYTFTNFGMNWVKQAPGKGLKWMGWINTYTGEPTYADDFKGRFAFSLETSASTASLQINNLKNEDTATYFCARRGDGLYSMDYWGQGTSVTVSS VL: DIVLTQSPASLAVSLGQRATISCRASESIDSYGNSFMYWYQQKPGQPPKLLIYRASNLESGIPARFSGSGSRTDFTLTINPVEADDVATYYCQQSNEDPLTFGAGTKLELK	%	0
62-100 (antibody, V domains shown, also called NAb 62-100) VH: QVQLQQPGAELVRPGASVKLSCKASGYTFTSYWMNWVKQRPGQGLEWIGMIDPSDSETHYNQMFKDKATLTVDKSSSTAYMQLSSLTSEDSAVYYCSNGYSSFAYWGQGTLVTVSV VL: DIVLTQSPATLSVTPGDSVSLSCRASQSISNNLHWYQQKSHESPRLLIKYASQSISGIPSRFSGSGSGTDFTLSINSVETEDFGKYVCQQSNSWPLTFGSGTKLEIK	%	0

input: Given the binder 21E9 (antibody, V domains shown, also called NAb 21E9) VH: QIQLVQSGPELKKPGETVKISCKASGYTFTIYGMNWVKQAPGKGLKWMGWINTYTGEPTYADDFRGRFAFSLETSASTAYLQINNLKNEDTATYFCARKGYYGSSGYFDYWGQGTTLTVSS VL: SIVMTQTPKFLLVSAGDRVTITCKASQSVSNDVSWYQQKPGQSPKLLIYYASNRYTGVPDRFTGSGYGTDFTFTISTVQAEDLAVYFCQQDYSSPWTFGGGTKLEIK , what is its reported Binding Inhibition (%)?
output: 0
